Tested on: eastern black nightshade
method.notes: Test C pre-/postemergence herbicide test
Format: in vivo, Solanum ptycanthum
conditions: 62 g ai/ha; preemergence; scale 0 to 100
Please note: Plant response rating, Nightshade exactly at 90 is condition not met. Only values below 90 get condition met.

Please review the following examples before continuing.
CC(=NO)c1cccc(NC(=O)c2sc(C(C)(C)C)nc2C)c1 : condition met
CCn1nc(C(C)(C)C)cc1C(=O)Nc1cccc(OC(F)F)c1 : condition met
CCn1nc(C(C)(C)C)cc1C(=O)Nc1cc(C(=S)N(C)C)ccc1F : condition not met
CCc1nn(C(C)(C)C)nc1C(=S)Nc1cccc(C(=S)N(C)C)c1 : condition not met
C=CCNC(=O)c1cccc(NC(=O)c2sc(C(C)(C)C)nc2CC)c1 : condition met
CCc1nn(C(C)(C)C)nc1C(=O)Nc1cccc(C(=S)N(C)C)c1 : condition not met
CCNC(=O)c1cccc(NC(=O)c2sc(C(C)(C)C)nc2CC)n1 : condition not met

Could you now consider this next compound?
Record CCn1nc(C(C)(C)C)cc1C(=O)Nc1cccc(C(N)=O)n1 : is its Plant response rating, Nightshade strictly below 90?
condition met
